experiment: method code SF-HPLC, from DOI: 10.1016/j.bmc.2003.11.030, PMID: 14759727; conditions: pH 11.0
Give logD for every item shown.
One number for each entry.

Answered examples (3):
1. c1ccc2[nH]c(NCCCc3cnc[nH]3)nc2c1	1.78
2. Nc1ccc2[nH]c(NCCCc3c[nH]cn3)nc2c1	0.17
3. CCCCc1ccc2[nH]c(NCCCc3c[nH]cn3)nc2c1	3.93

response.value for `CNC(=O)c1ccc2[nH]c(NCCc3c[nH]cn3)nc2c1` (field: logD) = 0.48
